Biological target: T1, ADI-67445
T1 construct: anti-CD3 antibody made in CHO cells, captured by anti-human Fc
T1 sequence (VH, as listed by the source limits assumed, chain 1 of 2): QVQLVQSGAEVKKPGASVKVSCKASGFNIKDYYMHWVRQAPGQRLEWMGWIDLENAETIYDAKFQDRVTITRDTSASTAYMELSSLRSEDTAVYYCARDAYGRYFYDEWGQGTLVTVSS
T1 sequence (VL, as listed by the source limits assumed, chain 2 of 2): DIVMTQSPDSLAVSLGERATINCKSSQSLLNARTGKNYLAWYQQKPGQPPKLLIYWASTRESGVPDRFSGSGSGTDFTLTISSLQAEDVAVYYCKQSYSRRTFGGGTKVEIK
Assay: SPR Carterra avidity, yeast anti-ID
QUANTITY: Kd (nM)
Unit nM implied. Number only.

BINDER: ADI-34132 (antibody, V domains shown, anti-ID IgG) VH: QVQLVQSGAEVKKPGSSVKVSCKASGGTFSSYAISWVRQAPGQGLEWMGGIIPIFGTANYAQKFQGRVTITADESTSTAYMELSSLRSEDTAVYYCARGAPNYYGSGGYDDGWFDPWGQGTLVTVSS VL: DIQLTQSPSSLSASVGDRVTITCRASQSISSYLNWYQQKPGKAPKLLIYAASNLQSGVPSRFSGSGSGTDFTLTISSLQPEDFATYYCQQTLHTPITFGGGTKVEIK
Kd [nM]: 0.65
//
BINDER: ADI-30242 (antibody, V domains shown, anti-ID IgG) VH: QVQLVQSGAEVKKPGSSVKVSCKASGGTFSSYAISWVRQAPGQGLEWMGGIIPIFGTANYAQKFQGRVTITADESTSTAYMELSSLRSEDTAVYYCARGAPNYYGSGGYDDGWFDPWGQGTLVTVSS VL: EIVLTQSPGTLSLSPGERATLSCRASQSVSSSYLAWYQQKPGQAPRLLIYGASSRATGIPDRFSGSGSGTDFTLTISRLEPEDFAVYYCQQFGRDPTFGGGTKVEIK
Kd [nM]: 11
//
BINDER: ADI-34137 (antibody, V domains shown, anti-ID IgG) VH: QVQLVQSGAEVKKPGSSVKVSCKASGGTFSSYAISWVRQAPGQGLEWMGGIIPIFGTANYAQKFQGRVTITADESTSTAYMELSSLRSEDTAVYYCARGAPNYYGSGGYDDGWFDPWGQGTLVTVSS VL: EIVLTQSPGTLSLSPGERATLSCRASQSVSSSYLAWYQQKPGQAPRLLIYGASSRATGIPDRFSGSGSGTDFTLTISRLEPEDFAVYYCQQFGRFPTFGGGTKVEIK
Kd [nM]: 0.37

Input: Recorded Kd for ADI-34135 (antibody, V domains shown, anti-ID IgG) VH: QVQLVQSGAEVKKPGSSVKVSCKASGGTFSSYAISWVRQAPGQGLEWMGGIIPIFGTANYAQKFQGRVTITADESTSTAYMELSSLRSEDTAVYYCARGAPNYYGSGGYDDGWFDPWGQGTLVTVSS VL: EIVMTQSPGTLSLSPGERATLSCRASQSVSSSYLAWYQQKPGQAPRLLIYGASSRATGIPDRFSGSGSGTDFTLTISRLEPEDFAVYYCQQFGRYPTFGGGTKVEIK , please?
Output: 0.34
